Recorded measurements of Post-emerge Herbicidal Activity RICE, one per entry
- System: upland rice (Oryza sp., var. Tebonnet, RICE)
- EXPERIMENT_SUMMARY: Post-emerge test, crop safety
- Type: in vivo
- RUN_CONDITIONS: post-emerge, 250 g ai/ha, crop damage rating 0-100 at 14 days after application
OBSERVATION_TYPE: Post-emerge Herbicidal Activity RICE

MOLECULE | OBSERVATION_TYPE | RESULT_VALUE
Cc1c(Cl)cc(F)c(-n2c(=O)cc(C(F)(F)F)n(C)c2=O)c1NC(=O)OCc1ccc(Cl)cc1Cl | Post-emerge Herbicidal Activity RICE | 30
COc1c(Cl)cc(F)c(N2C(=O)C3CCCCN3C2=S)c1NC(=O)c1ccc2ccccc2c1 (stereo not drawn) | Post-emerge Herbicidal Activity RICE | 15
O=C(Nc1cc(Cl)ccc1N1C(=O)C2=C(CCCC2)C1=O)c1ccc2ccccc2c1 | Post-emerge Herbicidal Activity RICE | 20
CC(C)Oc1c(Cl)cc(F)c(N2C(=O)C3=C(CCCC3)C2=O)c1NC(=O)c1ccc(F)cc1F | Post-emerge Herbicidal Activity RICE | 60
COc1c(Cl)cc(F)c(-n2c(=O)n3n(c2=O)CCCC3)c1NC(=O)c1ccc2ccccc2c1 | Post-emerge Herbicidal Activity RICE | 70
Cc1cc(C)c(COC(=O)Nc2c(C)c(Cl)cc(F)c2-n2c(=O)cc(C(F)(F)F)n(C)c2=O)c(C)c1 | Post-emerge Herbicidal Activity RICE | 40

----------
- Tested on: upland rice (Oryza sp., var. Tebonnet, RICE)
- EXPERIMENT_SUMMARY: Pre-emerge test, crop safety
- Type: in vivo
- RUN_CONDITIONS: pre-emerge, 63 g ai/ha, 14 days after application, rating scale 0-100
OBSERVATION_TYPE: phytotoxicity rating RICE

COMPOUND | RESULT_VALUE
CCOC(=O)C(Cl)Cc1c(OC)c(Cl)cc(F)c1-c1nn(C)c(C(F)(F)F)c1Cl (stereo not shown) [14-56] | 10
COc1c(Cl)cc(F)c(-n2c(=O)cc(C(F)(F)F)n(C)c2=O)c1NN=C(C(F)(F)F)C(F)(F)F [15-21] | 99
CCOC(=O)N(C)C(=O)NNc1c(OC)c(Cl)cc(F)c1-n1c(=O)cc(C(F)(F)F)n(C)c1=O [15-9] | 95
COc1c(Cl)cc(F)c(-n2c(=O)cc(C(F)(F)F)n(C)c2=O)c1NN=C(C)C [15-12] | 99

----------
- Test system: lambsquarters (Chenopodium album, CHEAL)
- EXPERIMENT_SUMMARY: Post-emerge test, greenhouse herbicide activity screening
- Format: in vivo
- RUN_CONDITIONS: post-emerge, 63 g ai/ha, 14 days after application, rating scale 0-100

COMPOUND | phytotoxicity rating CHEAL
COc1c(Cl)cc(F)c(-n2c(=O)cc(C(F)(F)F)n(C)c2=O)c1NC(=O)OCc1ccc(Cl)c(Cl)c1 [4-32] | 100
COc1c(Cl)cc(F)c(-n2c(=O)cc(C(F)(F)F)n(C)c2=O)c1N(C(=O)c1ccc([N+](=O)[O-])cc1)C(=O)c1ccc([N+](=O)[O-])cc1 [2-69] | 50
COc1c(Cl)cc(F)c(-n2c(=O)cc(C(F)(F)F)n(C)c2=O)c1NC(=O)OCc1ccccn1 [4-36] | 100
COc1c(Cl)cc(F)c(-n2c(=O)cc(C(F)(F)F)n(C)c2=O)c1NC(=O)OCc1c(F)cccc1F [4-29] | 90
COc1c(Cl)cc(F)c(-n2c(=O)cc(C(F)(F)F)n(C)c2=O)c1NC(=O)c1c(F)c(F)c(F)c(F)c1F [2-52] | 10

Value source: patent US6355799B1
